- Test System: Mitogen-activated protein kinase 10 (Homo sapiens)
- Method: JNK3 kinase activity inhibitors, primary screen, biochemical, human, purified enzyme (AID 746);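 also: 0% = DMSO and 100% = reference inhibitor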
- Measurement Setup: HTS, at 8 µM, hits give high values
The campaign covered roughly 60,000 compounds. About 370 (0.62%) were called active. This is one part of a sample in which actives are shown more often than they occur.
Record form. Attribute: inhibition. Fill in for each entry.
Could you give me the number in %? Just the number is fine.

stdin: Find the recorded inhibition belonging to CCOC(=O)c1ccccc1NC(=O)CC1Nc2ccccc2NC1=O (configuration not stated) and report it.
stdout: -0.55

stdin: Find the recorded inhibition belonging to `CSc1nc(C)nc2c1c(=O)n(C)c(=O)n2C` and report it.
stdout: 4.34

stdin: Find the recorded inhibition belonging to `C=C1c2cc(CC)ccc2NC(=O)N1c1ccc(C)cc1` and report it.
stdout: -1.58

stdin: Find the recorded inhibition belonging to `O=C(COc1ncnc2ccccc12)NC(=O)NCc1ccccc1` and report it.
stdout: 1.94

stdin: Find the recorded inhibition belonging to `O=C(CSC1=NCCS1)Nc1nc(-c2ccccc2)cs1` and report it.
stdout: 0.48

stdin: Find the recorded inhibition belonging to `CCn1cc(C(=O)N2CCN(C3CCCCC3)CC2)c2cc(OC)c(OC)cc2c1=O` and report it.
stdout: -1.36

stdin: Find the recorded inhibition belonging to `NC(=O)c1ccccc1NC(=O)c1ccccc1F` and report it.
stdout: 13.4

stdin: Find the recorded inhibition belonging to `O=C(O)c1cccc2c1C(=O)N(C1CCCCC1)C2` and report it.
stdout: -0.07

stdin: Find the recorded inhibition belonging to `COc1ncnc2c1N=C1CC(C)(C)CC(N)=C1S2` and report it.
stdout: -12.2

stdin: Find the recorded inhibition belonging to `CCCOC(=O)Nc1ccccc1C(N)=O` and report it.
stdout: -5.47

stdin: Find the recorded inhibition belonging to `CCOCCCNS(=O)(=O)Cc1ccccc1` and report it.
stdout: 1.76

stdin: Find the recorded inhibition belonging to Oc1c(C(c2cccs2)N2CCN(c3ccc(F)cc3)CC2)sc2ncnn12 (configuration not stated) and report it.
stdout: 1.85

----------
Record form. Attribute: inhibition. Fill in for each entry.
- Test System: Mitogen-activated protein kinase 10 (Homo sapiens) (UniProt P53779)
- Sequence (P53779 whole entry, looked up): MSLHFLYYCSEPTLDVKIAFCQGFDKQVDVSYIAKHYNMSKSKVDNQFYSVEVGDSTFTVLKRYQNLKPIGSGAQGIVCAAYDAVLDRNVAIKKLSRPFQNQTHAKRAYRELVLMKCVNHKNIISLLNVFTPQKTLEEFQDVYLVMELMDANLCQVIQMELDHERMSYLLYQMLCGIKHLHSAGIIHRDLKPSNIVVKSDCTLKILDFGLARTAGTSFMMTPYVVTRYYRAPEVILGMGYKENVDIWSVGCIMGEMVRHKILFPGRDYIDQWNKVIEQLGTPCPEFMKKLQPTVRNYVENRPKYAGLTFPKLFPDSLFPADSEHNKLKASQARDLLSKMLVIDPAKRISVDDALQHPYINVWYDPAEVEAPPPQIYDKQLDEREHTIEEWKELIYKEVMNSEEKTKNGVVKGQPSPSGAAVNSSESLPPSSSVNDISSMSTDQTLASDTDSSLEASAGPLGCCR
- Method: JNK3 kinase activity inhibitors, primary screen, biochemical, human, purified enzyme (AID 746);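 also: 0% = DMSO and 100% = reference inhibitor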
- Measurement Setup: HTS, at 8 µM, hits give high values
Hit rate of the full screen: of about 60,000 compounds, about 370 (0.62%) were called active. This is one part of a sample in which actives are shown more often than they occur.
Could you give me the number in %? Just the number is fine.

stdin: Form entry - test system: Mitogen-activated protein kinase 10 (Homo sapiens) (UniProt P53779); read-out: inhibition; compound: CCOC(=O)CC1C(=O)NCCN1C(=O)COc1ccc(Br)cc1C (stereo unspecified)
stdout: 1.6

stdin: Form entry - test system: Mitogen-activated protein kinase 10 (Homo sapiens) (UniProt P53779); read-out: inhibition; compound: `Cc1ccc(C(=O)COc2cccc(NC(=O)c3ccco3)c2)cc1`
stdout: 0.83

stdin: Form entry - test system: Mitogen-activated protein kinase 10 (Homo sapiens) (UniProt P53779); read-out: inhibition; compound: `COc1ccccc1NC(=O)CSc1nnc(Cn2nnc(-c3ccccc3)n2)n1-c1ccccc1`
stdout: -0.28

stdin: Form entry - test system: Mitogen-activated protein kinase 10 (Homo sapiens) (UniProt P53779); read-out: inhibition; compound: CCC(C)Sc1nnc(-c2c[nH]c3ccccc23)n1CCOC (stereo unspecified)
stdout: -1.71

stdin: Form entry - test system: Mitogen-activated protein kinase 10 (Homo sapiens) (UniProt P53779); read-out: inhibition; compound: `CCOc1ccc(C(=O)Nc2ccncc2)cc1`
stdout: 0.07

stdin: Form entry - test system: Mitogen-activated protein kinase 10 (Homo sapiens) (UniProt P53779); read-out: inhibition; compound: CC(C)CC(=O)N=C1SC2CS(=O)(=O)CC2N1CCc1ccccc1 (stereo unspecified)
stdout: -1.83

stdin: Form entry - test system: Mitogen-activated protein kinase 10 (Homo sapiens) (UniProt P53779); read-out: inhibition; compound: COC(=O)c1cc(NC2c3ccccc3C(=O)N2c2ccc(Cl)cn2)cc(C(=O)OC)c1 (stereo unspecified)
stdout: 1.5

stdin: Form entry - test system: Mitogen-activated protein kinase 10 (Homo sapiens) (UniProt P53779); read-out: inhibition; compound: `Cc1nc2c(-c3ccc(F)cc3)c(C)nn2c(C)c1CCC(=O)N1CCN(c2ccccn2)CC1`
stdout: 1.08

stdin: Form entry - test system: Mitogen-activated protein kinase 10 (Homo sapiens) (UniProt P53779); read-out: inhibition; compound: `Cc1cn(COC/C=C/c2ccccc2)c(=O)[nH]c1=O`
stdout: -1.97

stdin: Form entry - test system: Mitogen-activated protein kinase 10 (Homo sapiens) (UniProt P53779); read-out: inhibition; compound: `Cc1ccccc1CSc1nnc(Cn2c(=O)sc3ccccc32)n1C`
stdout: 0.98

stdin: Form entry - test system: Mitogen-activated protein kinase 10 (Homo sapiens) (UniProt P53779); read-out: inhibition; compound: `CC(=O)N1CCN(c2ccc(NCc3ccc(C(C)C)cc3)cc2)CC1`
stdout: -4.46

----------
- Test System: Mitogen-activated protein kinase 10 (Homo sapiens) (UniProt P53779)
- Method: JNK3 kinase activity inhibitors, primary screen, biochemical, human, purified enzyme (AID 746);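 also: 0% = DMSO and 100% = reference inhibitor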
- Measurement Setup: HTS, at 8 µM, hits give high values
Hit rate of the full screen: of about 60,000 compounds, about 370 (0.62%) were called active. Many of the other results were omitted from the sample, so actives are more common in it than they were.
Endpoint Label: inhibition (%)
Could you give me the number in %? Just the number is fine.

stdin: Find the recorded inhibition belonging to CN(C(=O)C1CCOC1)c1nnc(-c2cccnc2)s1 (stereo unspecified) and report it.
stdout: -0.13

stdin: Find the recorded inhibition belonging to `CC(C)Cc1cc(C(=O)Nc2cc(Br)ccc2O)no1` and report it.
stdout: -4.9

stdin: Find the recorded inhibition belonging to `Cc1cc(C)n(C(=O)c2ccc(C)c(S(=O)(=O)N3CCOCC3)c2)n1` and report it.
stdout: 1.61

stdin: Find the recorded inhibition belonging to `Cc1cc2c(=O)n(C)c(SCC(=O)c3cc4ccccc4o3)nc2s1` and report it.
stdout: -3.37

stdin: Find the recorded inhibition belonging to COc1ccc(OC)c(C2N(c3ccccn3)C(=O)C3CCCN32)c1 (stereo unspecified) and report it.
stdout: 1.09

stdin: Find the recorded inhibition belonging to `COc1ccccc1C(=O)N1CCN=C1SCc1cccnc1` and report it.
stdout: -7.75

stdin: Find the recorded inhibition belonging to `COc1cccc(OC)c1C(=O)Nc1nnc(C(C)C)s1` and report it.
stdout: -2.05

stdin: Find the recorded inhibition belonging to `Cc1ccsc1CNn1cnnc1SCc1ccccc1F` and report it.
stdout: -1.56

stdin: Find the recorded inhibition belonging to `Cc1ccc(CNC(=O)CCCNC(=O)c2ccc(Cl)cc2)n1C` and report it.
stdout: 10.2

stdin: Find the recorded inhibition belonging to `CCCCc1nc2ccccc2c(=O)n1NC(=O)c1c(O)c2cccc3c2n(c1=O)CC3` and report it.
stdout: -6.2

stdin: Find the recorded inhibition belonging to `CCOc1ccc(NS(=O)(=O)c2ccc(OCC(=O)NCCCOC)cc2)cc1` and report it.
stdout: -5.51

stdin: Find the recorded inhibition belonging to `CCc1ccccc1N(CC(=O)N1CCN(c2ccccc2F)CC1)S(C)(=O)=O` and report it.
stdout: 2.83

stdin: Find the recorded inhibition belonging to Cc1ccc2c(c1)C(O)(CC(=O)c1cccnc1)C(=O)N2 (stereo unspecified) and report it.
stdout: 4.44

stdin: Find the recorded inhibition belonging to `COC(=O)c1cc(NC(=O)CN2CCC(C(N)=O)(N3CCCCC3)CC2)cc(C(=O)OC)c1` and report it.
stdout: -2.8

stdin: Find the recorded inhibition belonging to CCC1SC2=NCCN2C1(O)c1ccc(Cl)cc1 (stereo unspecified) and report it.
stdout: -0.2

stdin: Find the recorded inhibition belonging to `Cc1nnc(NC(=O)CSc2nccn2-c2cccc(C)c2C)s1` and report it.
stdout: -4.27

stdin: Find the recorded inhibition belonging to CCn1nc(C(=O)OCC(=O)N2c3ccccc3CC2C)c2ccccc2c1=O (stereo unspecified) and report it.
stdout: 1.01

stdin: Find the recorded inhibition belonging to `COc1ccc(Cn2cccc(NC(=O)Nc3ccc(C#N)cc3)c2=O)cc1` and report it.
stdout: 2.85

stdin: Find the recorded inhibition belonging to `O=S(=O)(NCCOc1cccc2cccnc12)c1ccc(F)cc1` and report it.
stdout: -0.52

stdin: Find the recorded inhibition belonging to `COc1cc(C(=O)Nc2nccs2)cc(OC)c1OC` and report it.
stdout: 8.3

stdin: Find the recorded inhibition belonging to `O=C(CSc1nnc(Cc2ccccc2)n1-c1ccccc1)N1CCOCC1` and report it.
stdout: -3.48

stdin: Find the recorded inhibition belonging to `Cn1cccc1C(=O)Nc1nccs1` and report it.
stdout: 3.03

stdin: Find the recorded inhibition belonging to CC1CSc2nnc(CCc3ccccc3)n21 (stereo unspecified) and report it.
stdout: 16.5

stdin: Find the recorded inhibition belonging to `CCN(CC)S(=O)(=O)c1cccc(C(=O)NCC(=O)OCC(=O)NCc2ccccc2)c1` and report it.
stdout: -1.17

stdin: Find the recorded inhibition belonging to `CCCC(=O)Nc1ccc2c(c1)nc1n2CCSC1` and report it.
stdout: -5.4

stdin: Find the recorded inhibition belonging to `Fc1c(F)c(C(F)(F)F)c(F)c(F)c1N1CCN(c2ccc3nnc(C(F)(F)F)n3n2)CC1` and report it.
stdout: -2.37

stdin: Find the recorded inhibition belonging to COc1ccc(-c2cc(C(=O)NC(C(=O)O)C(C)C)c(C)o2)cc1OC (stereo unspecified) and report it.
stdout: 1.2

stdin: Find the recorded inhibition belonging to `CCN(CC)P(=O)(/C(Cl)=C\Nc1c(C)n(C)n(-c2ccccc2)c1=O)N(CC)CC` and report it.
stdout: 4.4

stdin: Find the recorded inhibition belonging to `COc1ccccc1Cc1nc(-c2ccc(C)cc2)no1` and report it.
stdout: 4.84

stdin: Find the recorded inhibition belonging to `CCOC(=O)c1ccc(Nc2cc(C)nc3nc(C)nn23)cc1` and report it.
stdout: -10.1

stdin: Find the recorded inhibition belonging to `Oc1ccc2nc(Cc3ccccc3)[nH]c2c1` and report it.
stdout: 5.45

stdin: Find the recorded inhibition belonging to `COc1ccc(NC(C)=O)cc1NC(=O)CN1CCN(c2ccccn2)CC1` and report it.
stdout: 2.12

stdin: Find the recorded inhibition belonging to `Cc1cccn2c(=O)c3cc(C(=O)N4COCC4(C)C)n(C)c3nc12` and report it.
stdout: 5.99

stdin: Find the recorded inhibition belonging to `C=CCN(c1ccc(C(N)=O)cc1)S(C)(=O)=O` and report it.
stdout: 4.4

stdin: Find the recorded inhibition belonging to `Cc1cc(=O)n2c3c(cccc13)CCC2` and report it.
stdout: 6.82

stdin: Find the recorded inhibition belonging to `COc1ccc(N2CCN(Cc3cc(=O)oc4ccc5ccccc5c34)CC2)cc1` and report it.
stdout: 11.2

stdin: Find the recorded inhibition belonging to `Brc1ccc(OCCn2ccnc2)cc1` and report it.
stdout: 1.14

stdin: Find the recorded inhibition belonging to `CN(C)/C=C1/C(=O)Nc2ccccc21` and report it.
stdout: -8.06

stdin: Find the recorded inhibition belonging to CC1=C(C(N)=O)C(c2ccc3c(c2)OCO3)n2nc(-c3cccc(C)c3)nc2N1 (stereo unspecified) and report it.
stdout: 5.86

stdin: Find the recorded inhibition belonging to `Cn1c(=O)[nH]c(=O)c2c1nc(CN1CCN(c3ccccc3F)CC1)n2CCc1ccccc1` and report it.
stdout: 3.94

stdin: Find the recorded inhibition belonging to `COc1c(O)cccc1-c1nnn(CCC(=O)OCC(=O)c2ccccc2)n1` and report it.
stdout: 0.11

stdin: Find the recorded inhibition belonging to `CCOC(=O)c1sc2nc(CSCC(=O)OCc3ccc(C(=O)OC)o3)[nH]c(=O)c2c1C` and report it.
stdout: 0.98

stdin: Find the recorded inhibition belonging to CCOc1ccccc1C1NC(=O)NC(C)=C1C(=O)OCc1ccco1 (stereo unspecified) and report it.
stdout: 2.09

stdin: Find the recorded inhibition belonging to O=C(OC(C(=O)NC1CCCC1)c1ccc(F)cc1)c1ccno1 (stereo unspecified) and report it.
stdout: -3.98

stdin: Find the recorded inhibition belonging to CCCOc1ccc(C2C(C(=O)c3ccc(C)o3)=C(O)C(=O)N2CCCn2ccnc2)cc1 (stereo unspecified) and report it.
stdout: 42.8

stdin: Find the recorded inhibition belonging to CC(C)COC(=O)C1C2C=CC3(CN(C(C)c4ccc(Br)cc4)C(=O)C13)O2 (stereo unspecified) and report it.
stdout: -6.16
